B1: library; numbered along this chain (parent)
chain: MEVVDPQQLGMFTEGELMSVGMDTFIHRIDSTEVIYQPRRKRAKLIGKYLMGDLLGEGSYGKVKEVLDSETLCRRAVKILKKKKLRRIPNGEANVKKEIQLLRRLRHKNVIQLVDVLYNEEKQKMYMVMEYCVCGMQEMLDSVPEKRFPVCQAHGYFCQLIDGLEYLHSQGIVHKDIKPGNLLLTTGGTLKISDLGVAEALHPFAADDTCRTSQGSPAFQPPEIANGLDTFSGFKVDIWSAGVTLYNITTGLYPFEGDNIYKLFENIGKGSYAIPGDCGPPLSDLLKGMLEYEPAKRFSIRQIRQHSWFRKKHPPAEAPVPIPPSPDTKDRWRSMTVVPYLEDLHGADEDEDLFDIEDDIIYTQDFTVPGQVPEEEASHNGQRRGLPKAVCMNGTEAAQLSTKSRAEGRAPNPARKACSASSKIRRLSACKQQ

Variants of: B1
Test: STK11 functional score (HeLa growth suppression), rescaled enrichment; synonymous median = 1, nonsense median = 0 (normalised score)
Conditions: with HeLa; variant type: missense
Observed Property: STK11 functional score

Mutation Annotation: G47A
Observed Property: STK11 functional score
Recorded Value: 1.4
--
Mutation Annotation: L195I
Observed Property: STK11 functional score
Recorded Value: 1.44
--
Mutation Annotation: L102D
Observed Property: STK11 functional score
Recorded Value: 0.469
--
Mutation Annotation: S213F
Observed Property: STK11 functional score
Recorded Value: 1.35
--
Mutation Annotation: N412Y
Observed Property: STK11 functional score
Recorded Value: 1.55
--
Mutation Annotation: L245M
Observed Property: STK11 functional score
Recorded Value: 0.526
--
Mutation Annotation: D229G
Observed Property: STK11 functional score
Recorded Value: 1.03
--
Mutation Annotation: D115R
Observed Property: STK11 functional score
Recorded Value: 1.52
--
Mutation Annotation: P314S
Observed Property: STK11 functional score
Recorded Value: 1.33
--
Mutation Annotation: I161W
Observed Property: STK11 functional score
Recorded Value: -0.296
--
Mutation Annotation: P217V
Observed Property: STK11 functional score
Recorded Value: 0.177
